// data source = ChEMBL document CHEMBL3400013

Tested on: CCRF-CEM
Experiment: Induction of apoptosis in human CCRF-CEM cells assessed as apoptotic cells at IC50 after 24 hrs by propidium iodide staining-based flow cytometry
Assay type: functional
Simple rule here: Activity less than 10% is met, otherwise not met.

Query: Is Activity strictly under 10% for the entry COC(=O)c1ccc(O)c(/C=N/NC(=O)c2ccc3c4c(ccc3c2)N2Cc3c(ccc5cc(C(=O)N/N=C/c6cc(C(=O)OC)ccc6O)ccc35)N(C4)C2)c1 ?
Reply: not met

Query: Is Activity strictly under 10% for the entry O=C(N/N=C/c1ccccc1O)c1ccc2c3c(ccc2c1)N1Cc2c(ccc4cc(C(=O)N/N=C/c5ccccc5O)ccc24)N(C3)C1 ?
Reply: not met

Query: Is Activity strictly under 10% for the entry COc1ccc(O)c(/C=N/NC(=O)c2ccc3c4c(ccc3c2)N2Cc3c(ccc5cc(C(=O)N/N=C/c6cc(OC)ccc6O)ccc35)N(C4)C2)c1 ?
Reply: not met

Query: Is Activity strictly under 10% for the entry O=C(NN=C(c1ccccn1)c1ccccn1)c1ccc2c3c(ccc2c1)N1Cc2c(ccc4cc(C(=O)NN=C(c5ccccn5)c5ccccn5)ccc24)N(C3)C1 ?
Reply: not met

Query: Is Activity strictly under 10% for the entry O=C(N/N=C/c1nccc2ccccc12)c1ccc2c3c(ccc2c1)N1Cc2c(ccc4cc(C(=O)N/N=C/c5nccc6ccccc56)ccc24)N(C3)C1 ?
Reply: met

Query: Is Activity strictly under 10% for the entry O=C(N/N=C/c1cc(F)ccc1O)c1ccc2c3c(ccc2c1)N1Cc2c(ccc4cc(C(=O)N/N=C/c5cc(F)ccc5O)ccc24)N(C3)C1 ?
Reply: not met

Query: Is Activity strictly under 10% for the entry O=C(N/N=C/c1cc(O)ccc1O)c1ccc2c3c(ccc2c1)N1Cc2c(ccc4cc(C(=O)N/N=C/c5cc(O)ccc5O)ccc24)N(C3)C1 ?
Reply: met

Query: Is Activity strictly under 10% for the entry Cc1ccc(O)c(/C=N/NC(=O)c2ccc3c4c(ccc3c2)N2Cc3c(ccc5cc(C(=O)N/N=C/c6cc(C)ccc6O)ccc35)N(C4)C2)c1 ?
Reply: not met
